# Tested on: 966289-007-R4-J1-PDC complex spheroid viability;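 note: spheroids exposed to the agents for seven days before readout; percent viability relative to DMSO vehicle control wells taken as 100%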
# experimental protocol: Anticancer human tumor 966289-007-R4-J1-PDC patient-derived pancreatic adenocarcinoma cell line growth inhibition [GQUAD]
# applied conditions: second compound 0.316 µM; first compound 10 µM; hits give low values
Entries whose viability, T/C is below 6% take 1 (yes); entries at or above 6% take 0 (no).

compound: COc1cc(C2c3cc4c(cc3C(OC3OC5COC(C)OC5C(O)C3O)C3COC(=O)C23)OCO4)cc(OC)c1O (stereo not given) + CN(C)c1ccc(Nc2c3ccc(NC(=O)CCN4CCCC4)cc3nc3cc(NC(=O)CCN4CCCC4)ccc23)cc1
category label: 1 (yes)
//
compound: COc1cccc2c1C(=O)c1c(O)c3c(c(O)c1C2=O)CC(O)(C(=O)CO)CC3OC1CC(N)C(O)C(C)O1 (stereo not given) + Cc1cnc(CNC(=O)c2c(=O)c3ccc(N4CCCN(C)CC4)nc3n3c2sc2ccccc23)cn1
category label: 1 (yes)
//
compound: COc1ncnc(C2CC2)c1-c1ncc2cnn(Cc3ccc(-c4nc(C(F)(F)F)cn4C(C)C)cc3)c2n1 + Cc1[nH]c2ccc(F)cc2c1-c1nc2c3cccnc3c3ncccc3c2[nH]1
category label: 0 (no)
//
compound: COc1ncnc(C2CC2)c1-c1ncc2cnn(Cc3ccc(-c4nc(C(F)(F)F)cn4C(C)C)cc3)c2n1 + Cc1cnc(CNC(=O)c2c(=O)c3ccc(N4CCCN(C)CC4)nc3n3c2sc2ccccc23)cn1
category label: 0 (no)
